Source of measurements: patent US20130204033A1

Tested on: Raji
Assay: 3H thymidine proliferation assay, Raji
Format: cell-based, human
Details: Homo sapiens, Raji, read-out: EC50, Raji, 3H thymidine method, 72 h incubation
pEC50: −log10 of the molar value.
Measured property: pEC50

{"Molecule": "CC[C@H](C)[C@H](NC(=O)[C@H]1CCCCN1C)C(=O)N(C)[C@H](C[C@@H](OC)c1nc(C(=O)N[C@H](CCC(=O)OC)Cc2ccccc2)cs1)C(C)C", "Subject of test": "Raji", "Test value": 8.15}
{"Molecule": "CC[C@H](C)[C@H](NC(=O)[C@H]1CCCCN1C)C(=O)N(C)[C@H](C[C@@H](OC)c1nc(C(=O)N[C@@H](Cc2ccccc2)C(=O)N[C@@H](C)C(=O)OC)cs1)C(C)C", "Subject of test": "Raji", "Test value": 7.96}
{"Molecule": "CC[C@H](C)[C@H](NC(=O)[C@H]1CCCCN1C)C(=O)N(C)[C@H](C[C@@H](OC)c1nc(C(=O)N[C@H](CC(=O)OC)Cc2ccccc2)cs1)C(C)C", "Subject of test": "Raji", "Test value": 6.64}
{"Molecule": "CC[C@H](C)[C@H](NC(=O)[C@H]1CCCCN1C)C(=O)N(COC(=O)CC(C)C)[C@H](C[C@@H](OC(C)=O)c1nc(C(=O)N[C@@H](Cc2ccc(N)cc2)CC(C)C(=O)O)cs1)C(C)C (some centres unmarked)", "Subject of test": "Raji", "Test value": 9.70}
{"Molecule": "CC[C@H](C)[C@H](NC(=O)[C@H]1CCCCN1C)C(=O)N(C)[C@H](C[C@@H](OC)c1nc(C(=O)N[C@@H](C)C(=O)N[C@@H](Cc2ccccc2)C(=O)OC)cs1)C(C)C [Compound 26a]", "Subject of test": "Raji", "Test value": 7.70}
{"Molecule": "CC[C@H](C)[C@H](NC(=O)[C@H]1CCCCN1C)C(=O)N(C)[C@H](C[C@@H](OC(C)=O)c1nc(C(=O)N[C@@H](Cc2ccc(N)cc2)CC(C)C(=O)O)cs1)C(C)C (some centres unmarked)", "Subject of test": "Raji", "Test value": 7.82}
{"Molecule": "CCCC(NC(=O)c1csc([C@@H](C[C@H](C(C)C)N(C)C(=O)[C@@H](NC(=O)[C@H]2CCCCN2C)[C@@H](C)CC)OC)n1)C(=O)OC (some centres unmarked)", "Subject of test": "Raji", "Test value": 7.28}
{"Molecule": "CC[C@H](C)[C@H](NC(=O)[C@H]1CCCCN1C)C(=O)N(C)[C@H](C[C@@H](OC)c1nc(C(=O)NC(Cc2ccccc2)C[C@H](C)C(=O)O)cs1)C(C)C (some centres unmarked)", "Subject of test": "Raji", "Test value": 9.33}
